Just for reference, patent US5726162A is where these values come from.

# System: fungal inoculum
# assay.explanation: organism not typed
# Assay type: cell-based
# condition.summary: read-out: % growth inhibition
Would you mind labelling by inhibition at 50 ppm? At or over 90% is yes (1), under is no (0).

Example cases with answers are listed next.
[[record]]
compound = "CCC#CCn1nc(-c2ccc(Cl)cc2C)ccc1=O"
assigned_class = "yes (1)"

[[record]]
compound = "O=C1CCC(c2ccc(Cl)cc2)=NN1Cc1cccs1"
assigned_class = "yes (1)"

[[record]]
compound = "O=C1CCC(c2ccc(Cl)cc2)=NN1c1ccccc1"
assigned_class = "yes (1)"

[[record]]
compound = "O=C1CCC(c2ccc(Cl)cc2)=NN1CC=CBr"
assigned_class = "yes (1)"

[[record]]
compound = "CCC#CCn1cc(-c2ccc(Cl)cc2)cnc1=O"
assigned_class = "no (0)"

[[record]]
compound = "CCC#CCN1N=C(c2ccc(Cl)cc2F)CCC1=O"
assigned_class = "yes (1)"

[[record]]
compound = "CC#CCn1nc(-c2ccc(Cl)cc2C)ccc1=O"
assigned_class = "no (0)"

[[record]]
compound = "CC#CCN1N=C(c2ccc(Cl)cc2)C(C)CC1=O (stereo not shown)"
assigned_class = "yes (1)"


Check if inhibition at 50 ppm >= 90% (inclusive). Item: O=C1CCC(c2ccc(Cl)cc2)=NN1CC#CCCF
yes (1)

Check if inhibition at 50 ppm >= 90% (inclusive). Item: CCC#CCn1nc(-c2cc3ccccc3s2)ccc1=O
yes (1)

* * *

# Test system: fungal mycelium
# assay.explanation: organism not typed
# Format: cell-based
# condition.summary: read-out: % growth inhibition
reported.endpoint: inhibition at 10 ppm (%)
Your answer is read as %, so omit the unit and give the number.

The examples below pair each entry with its known result.
[[record]]
compound = "CC#CCN1N=C(c2ccc(Cl)cc2)COC1=O"
target = "fungal mycelium"
units_of_measure = "%"
test_value = 12.7

[[record]]
compound = "CCC#CCN1N=C(c2cnc3ccccc3n2)CCC1=O"
target = "fungal mycelium"
units_of_measure = "%"
test_value = 30

[[record]]
compound = "O=C1CCC(c2ccc(Cl)cc2)=NN1CC#CC(F)F"
target = "fungal mycelium"
units_of_measure = "%"
test_value = 100

[[record]]
compound = "CN1N=C(c2ccc(Cl)cc2)CCC1=O"
target = "fungal mycelium"
units_of_measure = "%"
test_value = 10


Input CCC#CCN1N=C2c3ccc(Cl)cc3CCC2CC1=O (centres unmarked) . Output inhibition at 10 ppm: 100

* * *

// reported inhibition at 100 ppm per item
# System: fungal inoculum
# assay.explanation: organism not typed
# Type: cell-based
# condition.summary: read-out: % growth inhibition
Your answer is read as %, so omit the unit and give the number.

The examples below pair each entry with its known result.
[[record]]
molecule = "CCC#CCN1N=C(c2ccc(C(C)(C)C)cc2)CCC1=O"
reported_endpoint = "inhibition at 100 ppm"
test_value = 95.7

[[record]]
molecule = "O=C1CCC(c2ccc(Cl)cc2)=NN1Cc1ccccc1"
reported_endpoint = "inhibition at 100 ppm"
test_value = 100

[[record]]
molecule = "O=C1CCC(c2ccc(Cl)c(Cl)c2)=NN1CCCO"
reported_endpoint = "inhibition at 100 ppm"
test_value = 75

[[record]]
molecule = "C#CCN1N=C(c2ccc(Cl)cc2)CCC1=O"
reported_endpoint = "inhibition at 100 ppm"
test_value = 91.5

[[record]]
molecule = "CC#CCN1N=C(c2c(OC)ccc3ccc(OC)cc23)CCC1=O"
reported_endpoint = "inhibition at 100 ppm"
test_value = 64.6


Input CC#CCCN1N=C(c2ccc(Cl)cc2)CCC1=O . Output inhibition at 100 ppm: 45.8

Input CC#CCN1N=C(c2cccs2)CCC1=O . Output inhibition at 100 ppm: 37.8

Input CC#CCN1N=C(c2ccc3ccc4cccc5ccc2c3c45)CCC1=O . Output inhibition at 100 ppm: 23.9

Input CCCCN1N=C(c2ccc(Cl)cc2)CCC1=O . Output inhibition at 100 ppm: 94.4

Input CCC(O)CN1N=C(c2ccc(Cl)cc2)CCC1=O (centres unmarked) . Output inhibition at 100 ppm: 26.7

Input CC#CCN1N=C(c2cc(Cl)cc(Cl)c2)CCC1=O . Output inhibition at 100 ppm: 75.2

Input CC#CCN1N=C(c2ccccc2)CCCC1=O . Output inhibition at 100 ppm: 65

* * *

# Test system: fungal mycelium
# assay.explanation: organism not typed
# Assay type: cell-based
# condition.summary: read-out: % growth inhibition
reported.endpoint: inhibition at 10 ppm (%)
Your answer is read as %, so omit the unit and give the number.

[[record]]
molecule = "CCC#CCC1CC(c2ccc(Cl)cc2)=NN(C)C1=O (stereo not drawn) [Compound 203]"
units_of_measure = "%"
test_value = 100


Please turn your attention to the following entry.
Input CCC#CCN1N=C(c2ccc3c(c2)CCc2ccccc2-3)CCC1=O [Compound 227] . Output inhibition at 10 ppm: 30

* * *

# Tested on: Pyricularia oryzae
# Type: in vivo, Pyricularia oryzae on M-201 rice plants
# condition.summary: 200 ppm alone, protectant
// reported % Disease Control, Observed per item
Could you write the number and then its unit?

[[record]]
chemical_smiles = "CCC#CCN1N=C(c2ccc(Cl)cc2)CCC1=O"
test_value = "50%"


Input O=C1CCc2cccc3c2N1CC3 . Output % Disease Control, Observed: 85%

Input N#Cc1c(Cl)c(Cl)c(Cl)c(C#N)c1Cl . Output % Disease Control, Observed: 99%

Input C=CCOC1=NS(=O)(=O)c2ccccc21 . Output % Disease Control, Observed: 0%

* * *

// reported inhibition of growth at 100 ppm per item
# Test system: Candida albicans
# assay.explanation: Activity against Candida albicans in microtiter plates, % control of growth
# Format: cell-based
# condition.summary: 72 h, 3 days after treatment, read-out: % control of growth +3
Your answer is read as %, so omit the unit and give the number.

The examples below pair each entry with its known result.
[[record]]
molecule = "CCC#CCn1nc(-c2ccc(Cl)cc2)ccc1=O"
reported_endpoint = "inhibition of growth at 100 ppm"
test_value = 100

[[record]]
molecule = "CCC#CCn1nc(-c2ccc(Br)cc2)ccc1=O"
reported_endpoint = "inhibition of growth at 100 ppm"
test_value = 100

[[record]]
molecule = "C=CC#CCN1N=C2c3ccc(Cl)cc3CC2CC1=O (stereo not shown)"
reported_endpoint = "inhibition of growth at 100 ppm"
test_value = 100


Input C=CC#CCN1N=C(c2ccc(Cl)c(F)c2)CCC1=O . Output inhibition of growth at 100 ppm: 100

Input CCC#CCn1nc(-c2ccc(Cl)c(F)c2)ccc1=O . Output inhibition of growth at 100 ppm: 100

Input O=C1CCC(c2ccc(Cl)cc2)=NN1CC#CCF . Output inhibition of growth at 100 ppm: 100

Input CC(F)C#CCn1nc(-c2ccc(Cl)cc2)ccc1=O (stereo not shown) . Output inhibition of growth at 100 ppm: 100

Input CC(C)C#CCN1N=C(c2ccc(Cl)cc2)CCC1=O . Output inhibition of growth at 100 ppm: 100

Input C=CC#CCN1N=C(c2ccc(Cl)cc2)CCC1=O . Output inhibition of growth at 100 ppm: 100

Input CCC#CCN1N=C(c2ccc(Cl)cc2)CCC1=O . Output inhibition of growth at 100 ppm: 100

* * *

# System: Thanatephorus cucumeris (Rhizoctonia solani)
# assay.explanation: In vivo test b) Rice Sheath Blight (RSB), 24 hour preapplication protectant, % control
# condition.summary: 200 ppm, protectant, read-out: % Control RSB
// reported pest or weed control at 200 ppm per item
Your answer is read as %, so omit the unit and give the number.

[[record]]
molecule = "C#CC=CCN1N=C(c2ccc(Cl)cc2)CCC1=O"
target = "Thanatephorus cucumeris (Rhizoctonia solani)"
reported_endpoint = "pest or weed control at 200 ppm"
units_of_measure = "%"
test_value = 0

[[record]]
molecule = "CCC#CCN1N=C(c2ccc(Cl)cc2)OCC1=O"
target = "Thanatephorus cucumeris (Rhizoctonia solani)"
reported_endpoint = "pest or weed control at 200 ppm"
units_of_measure = "%"
test_value = 0

[[record]]
molecule = "CCC#CCN1N=C(c2ccc(Cl)cc2)CC=C1Cl"
target = "Thanatephorus cucumeris (Rhizoctonia solani)"
reported_endpoint = "pest or weed control at 200 ppm"
units_of_measure = "%"
test_value = 0

[[record]]
molecule = "CCC#CCN1N=C(c2cc(F)c(Cl)c(F)c2)CCC1=O"
target = "Thanatephorus cucumeris (Rhizoctonia solani)"
reported_endpoint = "pest or weed control at 200 ppm"
units_of_measure = "%"
test_value = 95

[[record]]
molecule = "CCC#CCN1N=C(c2ccc(Cl)cc2)CC=C1Br"
target = "Thanatephorus cucumeris (Rhizoctonia solani)"
reported_endpoint = "pest or weed control at 200 ppm"
units_of_measure = "%"
test_value = 95


Input O=C1CCC(c2ccc(Cl)cc2)=NN1C(=O)c1ccccc1 . Output pest or weed control at 200 ppm: 50

Input CC=CC#CCN1N=C(c2ccc(Cl)cc2)CCC1=O . Output pest or weed control at 200 ppm: 0

Input COc1ccc(C2=NN(CCCO)C(=O)CC2)cc1 . Output pest or weed control at 200 ppm: 0

Input O=C1CCC(c2ccc(Cl)cc2)=NN1Cc1cccc(Cl)c1 . Output pest or weed control at 200 ppm: 0

Input C/C=C\C#CCN1N=C(c2ccc(Cl)cc2)CCC1=O . Output pest or weed control at 200 ppm: 0

Input CCC#CCn1cc(-c2ccc(Cl)cc2)cnc1=O . Output pest or weed control at 200 ppm: 95

Input CCC#CCN1N=C(c2ccc(F)c(Cl)c2)CCC1=O . Output pest or weed control at 200 ppm: 0

Input O=C1CCC(c2ccc(Cl)c(Cl)c2)=NN1CCCO . Output pest or weed control at 200 ppm: 50

Input CC#CCN1N=C(c2ccccc2)CCC1=O . Output pest or weed control at 200 ppm: 0

Input CC#CCN1N=C(c2ccc(Cl)cc2Cl)CCC1=O . Output pest or weed control at 200 ppm: 0

Input CCC(O)CN1N=C(c2ccc(Cl)cc2)CCC1=O (stereo not shown) . Output pest or weed control at 200 ppm: 0

Input CC#CCN1N=C(c2ccc(C)cc2)CCC1=O . Output pest or weed control at 200 ppm: 0

Input CC#CCCN1N=C(c2ccc(Cl)cc2)CCC1=O . Output pest or weed control at 200 ppm: 0

Input CC#CCn1nc(-c2ccc(Cl)cc2)ccc1=O . Output pest or weed control at 200 ppm: 50

Input CC#CCN1N=C(c2cccnc2)CCC1=O . Output pest or weed control at 200 ppm: 0

Input CC(C)(C)N1N=C(c2ccc(Cl)cc2)CCC1=O . Output pest or weed control at 200 ppm: 50

Input CCC(O)CN1N=C(c2ccc(Cl)c(Cl)c2)CCC1=O (stereo not shown) . Output pest or weed control at 200 ppm: 0

Input C=CC#CCN1N=C2c3ccc(Cl)cc3CC2CC1=O (stereo not shown) . Output pest or weed control at 200 ppm: 95

Input CC#CCN1N=C(c2ccc(Cl)cc2)CCC1=O . Output pest or weed control at 200 ppm: 0

Input CC#CCN1N=C(C=Cc2ccc(C(C)(C)C)cc2)CCC1=O . Output pest or weed control at 200 ppm: 0
